# Read-out: xenobiotic metabolism (CYP1A1), CYP1A1 (gene 1543)
# assay-procedure: CLD_CYP1A1_48hr: CellzDirect (CLD) Gene Expression Assay for xenobiotic metabolism (CYP1A1) at 48 hours (AID 2283705)
Inconclusive results are not listed. Active and inactive are the calls of the source. Rule for the calls: active = hit-call score of the fitted dose curve at least 0.9, where 1 is the maximum; inconclusive = response in the unintended direction; inactive = score below 0.9.
Please reply with one of these outcomes: active, inactive

Consider the worked cases shown below.
[
  {
    "compound": "C#CCC1=C(C)C(OC(=O)C2C(C=C(C)C)C2(C)C)CC1=O (stereo not given)",
    "category-label": "active"
  },
  {
    "compound": "CCCCN(CC)c1c([N+](=O)[O-])cc(C(F)(F)F)cc1[N+](=O)[O-]",
    "category-label": "active"
  },
  {
    "compound": "CCOP(=S)(OCC)OC(Cl)C(Cl)(Cl)Cl (stereo not given)",
    "category-label": "inactive"
  }
]

Q: Query: recorded result category for CN(C)[C@@H]1C(=O)C(C(N)=O)=C(O)[C@@]2(O)C(=O)C3=C(O)c4c(O)cccc4[C@@](C)(O)[C@H]3[C@H](O)[C@@H]12 in this test
Ans: inactive

Q: Query: recorded result category for CCCCSP(=O)(SCCCC)SCCCC in this test
Ans: active

----------
# Tested on: DIO1 (gene 1733)
# assay-procedure: CCTE_GLTED_hDIO1: CCTE's human Deiodinase 1 (DIO1) Inhibition Assay, Great Lakes Toxicology and Ecology Division (GLTED) Lab (AID 2283987);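 note: isolated human DIO1 enzyme in a cell-free setup rather than cells; enzyme activity read as free iodide liberated from substrate via Sandell-Kolthoff colorimetry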
Records with an inconclusive call do not appear. Calls of active or inactive are those of the source. The calls were made as follows: active = hit-call score of the fitted dose curve at least 0.9, where 1 is the maximum; inconclusive = response in the unintended direction; inactive = score below 0.9.
Please reply with one of these outcomes: active, inactive

[
  {
    "molecule": "CCCOCC(=Nc1ccc(Cl)cc1C(F)(F)F)n1ccnc1",
    "subject-of-test": "DIO1 (gene 1733)",
    "category-label": "active"
  },
  {
    "molecule": "CC[C@H](C)[C@H]1O[C@]2(C=C[C@@H]1C)C[C@@H]1C[C@@H](C/C=C(\\C)[C@@H](O[C@H]3C[C@H](OC)[C@@H](O[C@H]4C[C@H](OC)[C@@H](NC)[C@H](C)O4)[C@H](C)O3)[C@@H](C)/C=C/C=C3\\CO[C@@H]4[C@H](O)C(C)=C[C@@H](C(=O)O1)[C@]34O)O2",
    "subject-of-test": "DIO1 (gene 1733)",
    "category-label": "active"
  },
  {
    "molecule": "O=[N+]([O-])c1cc(C(F)(F)F)c(Cl)c([N+](=O)[O-])c1Nc1ncc(C(F)(F)F)cc1Cl",
    "subject-of-test": "DIO1 (gene 1733)",
    "category-label": "active"
  }
]

We next turn to a different molecule, shown below.
Q: Query: recorded result category for CCOC(=O)CC(SP(=O)(OC)OC)C(=O)OCC (centres undefined) in this test
Ans: inactive

----------
# Read-out: ABC Transporter (ABCB11), ABCB11 (gene 8647)
# assay-procedure: CLD_ABCB11_6hr: CellzDirect (CLD) Gene Expression Assay for ABC Transporter (ABCB11) at 6 hours (AID 2283675);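 note: hits raise ABCB11 mRNA level so AC50 marks induction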
Inconclusive results are not listed. Activity calls are given as the source filed them. Rule for the calls: active = hit-call score of the fitted dose curve at least 0.9, where 1 is the maximum; inconclusive = response in the unintended direction; inactive = score below 0.9.
Please reply with one of these outcomes: yes (1) for active, no (0) for inactive

[
  {
    "molecule": "S=C1NCCN1",
    "category-label": "no (0)"
  },
  {
    "molecule": "CCC(CC)Nc1c([N+](=O)[O-])cc(C)c(C)c1[N+](=O)[O-]",
    "category-label": "no (0)"
  },
  {
    "molecule": "O=[N+]([O-])c1cc(C(F)(F)F)c(Cl)c([N+](=O)[O-])c1Nc1ncc(C(F)(F)F)cc1Cl",
    "category-label": "no (0)"
  },
  {
    "molecule": "CCCSP(=O)(OCC)SCCC",
    "category-label": "no (0)"
  }
]

Q: Query: recorded result category for CCOP(=S)(Oc1cnc(C(C)(C)C)nc1)OC(C)C (stereo not drawn) in this test
Ans: yes (1)

Q: Query: recorded result category for CCC(=O)Nc1ccc(Cl)c(Cl)c1 in this test
Ans: no (0)

Q: Query: recorded result category for CON=C(C(=O)OC)c1ccccc1CON=C(C)c1cccc(C(F)(F)F)c1 in this test
Ans: no (0)

Q: Query: recorded result category for C[Si](Cn1cncn1)(c1ccc(F)cc1)c1ccc(F)cc1 in this test
Ans: no (0)

Q: Query: recorded result category for COP(=O)(OC)OC(Br)C(Cl)(Cl)Br (stereo not drawn) in this test
Ans: no (0)

Q: Query: recorded result category for COP(=O)(OC)C(O)C(Cl)(Cl)Cl (stereo not drawn) in this test
Ans: no (0)

Q: Query: recorded result category for CC(C)N(C(=O)SCC(Cl)=C(Cl)Cl)C(C)C in this test
Ans: no (0)

Q: Query: recorded result category for CCOP(=O)(SC(C)CC)N1CCSC1=O (stereo not drawn) in this test
Ans: no (0)

Q: Query: recorded result category for CN(C)NC(=O)CCC(=O)O in this test
Ans: no (0)

----------
# Read-out: CYP2C8 (gene 1558)
# assay-procedure: LTEA_HepaRG_CYP2C8: Life Technologies and Expression Analysis (LTEA) Assay for CYP2C8 using HepaRG (AID 2283483)
# test-settings: mRNA level, 48 h; actives raise or lower the signal
Calls of active or inactive are those of the source. How the source made its calls: active means hit-call score of the fitted dose curve at least 0.9, where 1 is the maximum; inactive means score below 0.9.
Please reply with one of these outcomes: YES = active, NO = inactive

[
  {
    "molecule": "C=C(C)[C@H]1Cc2c(ccc3c2O[C@@H]2COc4cc(OC)c(OC)cc4[C@@H]2C3=O)O1",
    "category-label": "YES"
  }
]

Q: Query: recorded result category for COP(=O)(OC)OC(Br)C(Cl)(Cl)Br (stereo not drawn) in this test
Ans: NO

Q: Query: recorded result category for S=C1NCCN1 in this test
Ans: NO

Q: Query: recorded result category for CCC(CC)Nc1c([N+](=O)[O-])cc(C)c(C)c1[N+](=O)[O-] in this test
Ans: NO

Q: Query: recorded result category for CCOP(=O)(OCC)Oc1cc(C)nc(C(C)C)n1 in this test
Ans: NO

Q: Query: recorded result category for Cc1ccn2nc(S(=O)(=O)Nc3c(F)cccc3F)nc2n1 in this test
Ans: NO

Q: Query: recorded result category for CCCCOC(=O)c1ccccc1C(=O)O in this test
Ans: NO

Q: Query: recorded result category for CCOP(=S)(OCC)SCCSCC in this test
Ans: NO

Q: Query: recorded result category for CNC(=O)Oc1cccc2c1OC(C)(C)O2 in this test
Ans: NO

Q: Query: recorded result category for CSc1nc(NC(C)C)nc(NC(C)C)n1 in this test
Ans: NO

Q: Query: recorded result category for C#CC(C)(C)NC(=O)c1cc(Cl)cc(Cl)c1 in this test
Ans: NO

Q: Query: recorded result category for CC1(C(=O)Nc2ccc(O)c(Cl)c2Cl)CCCCC1 in this test
Ans: NO

Q: Query: recorded result category for COc1cc(OC)nc(Sc2cccc(Cl)c2C(=O)O)n1 in this test
Ans: NO

----------
# Read-out: Macrophage colony-stimulating factor (MCSF), CSF1 (gene 1435)
# assay-procedure: BSK_LPS_MCSF: BioMAP Diversity Plus: LPS Assay for Macrophage colony-stimulating factor (MCSF) Biomarker Activity (AID 2283083)
# test-settings: primary human HUVEC with PBMC; actives raise or lower the signal
Calls of active or inactive are those of the source. The calls were made as follows: active = hit-call score of the fitted dose curve at least 0.9, where 1 is the maximum; inactive = score below 0.9.
Please reply with one of these outcomes: true (1) for active, false (0) for inactive

Consider the worked cases shown below.
[
  {
    "molecule": "COP(=O)(NC(C)=O)SC (centres undefined)",
    "category-label": "false (0)"
  },
  {
    "molecule": "CC[C@H](C)[C@H]1O[C@]2(C=C[C@@H]1C)C[C@@H]1C[C@@H](C/C=C(\\C)[C@@H](O[C@H]3C[C@H](OC)[C@@H](O[C@H]4C[C@H](OC)[C@@H](NC)[C@H](C)O4)[C@H](C)O3)[C@@H](C)/C=C/C=C3\\CO[C@@H]4[C@H](O)C(C)=C[C@@H](C(=O)O1)[C@]34O)O2",
    "category-label": "true (1)"
  },
  {
    "molecule": "CCC(CC)Nc1c([N+](=O)[O-])cc(C)c(C)c1[N+](=O)[O-]",
    "category-label": "true (1)"
  }
]

Q: Query: recorded result category for CN1COCN(Cc2cnc(Cl)s2)C1=N[N+](=O)[O-] in this test
Ans: false (0)

----------
# Read-out: xenobiotic metabolism (CYP1A1), CYP1A1 (gene 1543)
# assay-procedure: CLD_CYP1A1_6hr: CellzDirect (CLD) Gene Expression Assay for xenobiotic metabolism (CYP1A1) at 6 hours (AID 2283661)
Inconclusive results are not listed. Calls of active or inactive are those of the source. Rule for the calls: active = hit-call score of the fitted dose curve at least 0.9, where 1 is the maximum; inconclusive = response in the unintended direction; inactive = score below 0.9.
Please reply with one of these outcomes: Y (active), N (inactive)

Consider the worked cases shown below.
[
  {
    "structure-string": "CCOP(=S)(OCC)SCCSCC",
    "category-label": "Y"
  },
  {
    "structure-string": "CN(C)[C@@H]1C(=O)C(C(N)=O)=C(O)[C@@]2(O)C(=O)C3=C(O)c4c(O)cccc4[C@@](C)(O)[C@H]3[C@H](O)[C@@H]12",
    "category-label": "N"
  },
  {
    "structure-string": "Cc1cc(C2CC2)nc(Nc2ccccc2)n1",
    "category-label": "Y"
  },
  {
    "structure-string": "C[Si](Cn1cncn1)(c1ccc(F)cc1)c1ccc(F)cc1",
    "category-label": "Y"
  }
]

Q: Query: recorded result category for CN(C)C(=O)Nc1cccc(C(F)(F)F)c1 in this test
Ans: N
